- tested-on: kinases (Homo sapiens, UniProt P36888, D835V)
- Construct: purchased Eurofins/DiscoveRx; host or cells: E. coli BL21-derived host (T7 phage display) for most kinases; HEK-293 for the rest
- Sequence (P36888 27-993 D835V): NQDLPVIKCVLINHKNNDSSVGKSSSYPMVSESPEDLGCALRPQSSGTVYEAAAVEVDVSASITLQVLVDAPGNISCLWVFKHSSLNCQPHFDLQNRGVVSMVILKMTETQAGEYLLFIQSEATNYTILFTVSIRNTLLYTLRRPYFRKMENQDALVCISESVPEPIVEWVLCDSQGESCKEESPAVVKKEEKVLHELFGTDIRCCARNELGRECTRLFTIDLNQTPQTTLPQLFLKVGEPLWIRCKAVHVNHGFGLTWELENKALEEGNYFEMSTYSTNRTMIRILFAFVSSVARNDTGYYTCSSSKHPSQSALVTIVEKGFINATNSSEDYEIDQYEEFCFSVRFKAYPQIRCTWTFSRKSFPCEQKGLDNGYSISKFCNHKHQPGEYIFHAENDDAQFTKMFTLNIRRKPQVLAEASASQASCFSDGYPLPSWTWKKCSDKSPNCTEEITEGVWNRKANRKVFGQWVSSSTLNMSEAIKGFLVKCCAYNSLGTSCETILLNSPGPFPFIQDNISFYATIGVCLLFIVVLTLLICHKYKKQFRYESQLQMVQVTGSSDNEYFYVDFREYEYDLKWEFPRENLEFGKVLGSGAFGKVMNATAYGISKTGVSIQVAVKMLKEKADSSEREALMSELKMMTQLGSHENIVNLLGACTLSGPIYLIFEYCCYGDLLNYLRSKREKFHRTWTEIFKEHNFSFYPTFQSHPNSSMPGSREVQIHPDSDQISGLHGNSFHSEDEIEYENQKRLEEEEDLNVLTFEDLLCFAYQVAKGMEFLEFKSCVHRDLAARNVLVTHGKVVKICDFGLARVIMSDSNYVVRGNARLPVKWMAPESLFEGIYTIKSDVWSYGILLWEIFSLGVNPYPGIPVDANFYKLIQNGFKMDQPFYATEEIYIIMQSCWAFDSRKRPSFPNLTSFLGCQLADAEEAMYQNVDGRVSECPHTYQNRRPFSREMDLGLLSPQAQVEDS
- procedure-text: KINOMEscan kinase binding assay (Eurofins/DiscoveRx), % Ctrl
- reported-conditions: 1 μM; FLT3(D835V)
Quick reference for % Ctrl, FLT3(D835V) among some molecules
measurement-label: % Ctrl, FLT3(D835V)

1) Cc1cc2c([nH]1)/C=C1\C(=O)Nc3ccc(cc31)-c1ccnn1CCOCCN(C)C2=O [Ex. 41]; 0.25 % Ctrl
2) Cc1cc2c([nH]1)/C=C1\C(=O)Nc3cnc(nc31)N(C)CCCOCCN(C)C2=O [Ex.71]; 100 % Ctrl
3) Cc1cc2c([nH]1)/C=C1\C(=O)Nc3ccc(cc31)CN(C)C(=O)COCCNC2=O [Ex.111]; 1.5 % Ctrl
4) CNC(=O)[C@H]1CN(C)C(=O)c2cc(C)[nH]c2/C=C2\C(=O)Nc3cc(Cl)c(cc32)OCCO1 [Ex. 135]; 6 % Ctrl
5) Cc1cc2c([nH]1)/C=C1\C(=O)Nc3cc(Cl)c(cc31)OCCO[C@@H](C(=O)NC1CCNCC1)CN(C)C2=O [Ex. 134]; 3.9 % Ctrl
6) Cc1cc2c([nH]1)/C=C1\C(=O)Nc3ccc(cc31)-c1cnn(C)c1CNCCN(C)C2=O [Ex. 125]; 0.25 % Ctrl
7) Cc1cc2c([nH]1)/C=C1\C(=O)Nc3cnc(cc31)-c1cnn(C)c1COCCNC2=O [Ex.123]; 91 % Ctrl
8) Cc1cc2c([nH]1)/C=C1\C(=O)Nc3ccc(cc31)-c1cnn(C)c1COCCN(C)C2=O [Ex. 124]; 0 % Ctrl

* * *

Items are presented alongside their recorded % Ctrl, FLT3(R834Q).
- tested-on: kinases (Homo sapiens, UniProt P36888, R834Q)
- Construct: purchased Eurofins/DiscoveRx; host or cells: E. coli BL21-derived host (T7 phage display) for most kinases; HEK-293 for the rest
- procedure-text: KINOMEscan kinase binding assay (Eurofins/DiscoveRx), % Ctrl
- reported-conditions: 1 μM; FLT3(R834Q)
measurement-label: % Ctrl, FLT3(R834Q) (% Ctrl)

1) CNC(=O)[C@H]1CN(C)C(=O)c2cc(C)[nH]c2/C=C2\C(=O)Nc3cc(Cl)c(cc32)OCCO1 [Ex. 135]; 63
2) Cc1cc2c([nH]1)/C=C1\C(=O)Nc3cnc(cc31)-c1cnn(C)c1COCCNC2=O [Ex.123]; 100
3) Cc1cc2c([nH]1)/C=C1\C(=O)Nc3ccc(nc31)-c1ccccc1OCCCNC2=O [Ex.22]; 97
4) Cc1cc2c([nH]1)/C=C1\C(=O)Nc3ccc(cc31)-c1cnn(C)c1CN(C)CCN(C)C2=O [Ex. 126]; 0
5) Cc1cc2c([nH]1)/C=C1\C(=O)Nc3cc(Cl)c(cc31)OCCOCCN(C)C2=O [Ex. 131]; 6.6
6) Cc1cc2c([nH]1)/C=C1\C(=O)Nc3ccc(cc31)-c1c(noc1C)COCCN(C)C2=O [Ex. 128]; 68
7) Cc1cc2c([nH]1)/C=C1\C(=O)Nc3cc(Cl)c(cc31)OCCO[C@@H](C(=O)NC1CNC1)CN(C)C2=O [Ex. 133]; 49
8) Cc1cc2c([nH]1)/C=C1\C(=O)Nc3ccc(cc31)OCCOCCNC2=O [Ex. 129]; 84
9) Cc1cc2c([nH]1)/C=C1\C(=O)Nc3ccc(cc31)-c1ccnn1CCOCCNC2=O [Ex.39]; 93
10) Cc1cc2c([nH]1)/C=C1\C(=O)Nc3ccc(cc31)-c1c(C)n[nH]c1CNCCN(C)C2=O [Ex. 127]; 13
11) Cc1cc2c([nH]1)/C=C1\C(=O)Nc3ccc(cc31)-c1cnn(C)c1COCCN(C)C2=O [Ex. 124]; 0
12) Cc1cc2c([nH]1)/C=C1\C(=O)Nc3cnc(nc31)N(C)CCCOCCN(C)C2=O [Ex.71]; 100
13) Cc1cc2c([nH]1)/C=C1\C(=O)Nc3cc(Cl)c(cc31)OCCO[C@@H](C(=O)NC1CCNCC1)CN(C)C2=O [Ex. 134]; 59
14) Cc1cc2c([nH]1)/C=C1\C(=O)Nc3ccc(cc31)O[C@@H](C)COCCN(C)C2=O [Ex. 92]; 75
15) Cc1cc2c([nH]1)/C=C1\C(=O)Nc3ccc(cc31)OCCOCCN(C)C2=O [Ex.91]; 29
16) Cc1cc2c([nH]1)/C=C1\C(=O)Nc3ccc(cc31)-c1cnn(C)c1CNCCN(C)C2=O [Ex. 125]; 0.3
17) Cc1cc2c([nH]1)/C=C1\C(=O)Nc3ccc(cc31)CN(C)C(=O)COCCNC2=O [Ex.111]; 39

* * *

- tested-on: kinases (Homo sapiens, UniProt P00533, DEL752-759)
- Construct: purchased Eurofins/DiscoveRx; host or cells: E. coli BL21-derived host (T7 phage display) for most kinases; HEK-293 for the rest
- procedure-text: KINOMEscan kinase binding assay (Eurofins/DiscoveRx), % Ctrl
- reported-conditions: 1 μM; target EGFR(S752-I759del)
- Description: Kinase binding assays were performed at Eurofins/DiscoveRx using the general KINOMEscan Protocol (Fabian, M. A. et al., “A small molecule-kinase interaction map for clinical kinase inhibitors,” Nat. Biotechnol. 2005, 23(3):329-36). For most assays, kinase-tagged T7 phage strains were prepared in an E. coli host derived from the BL21 strain. […] The kinase concentration in the eluates was measured by qPCR. […]
Readings of % Ctrl, EGFR(S752-I759del) for the listed molecules
measurement-label: % Ctrl, EGFR(S752-I759del) (% Ctrl)

1. Cc1cc2c([nH]1)/C=C1\C(=O)Nc3ccc(cc31)-c1cnn(C)c1OCCCN(C)C2=O; 93
2. CN1CCOc2cc3c(cc2Cl)NC(=O)/C3=C\c2[nH]ccc2C(=O)N(C)CC1; 55
3. Cc1cc2c([nH]1)/C=C1\C(=O)Nc3ccc(cc31)-c1c(noc1C(C)C)COCCN(C)C2=O; 81
4. Cc1cc2c([nH]1)/C=C1\C(=O)Nc3cc(Cl)c(cc31)SCCOCCN(C)C2=O; 61
5. Cc1cc2c([nH]1)/C=C1\C(=O)Nc3cnc(cc31)-c1cnn(C)c1CN(C)CCN(C)C2=O; 37

* * *

Measured % Ctrl, ABL1-phosphorylated, listed per entry for reference.
- tested-on: kinases (Homo sapiens, UniProt P00519)
- Construct: purchased Eurofins/DiscoveRx; host or cells: E. coli BL21-derived host (T7 phage display) for most kinases; HEK-293 for the rest
- Sequence (P00519 whole entry): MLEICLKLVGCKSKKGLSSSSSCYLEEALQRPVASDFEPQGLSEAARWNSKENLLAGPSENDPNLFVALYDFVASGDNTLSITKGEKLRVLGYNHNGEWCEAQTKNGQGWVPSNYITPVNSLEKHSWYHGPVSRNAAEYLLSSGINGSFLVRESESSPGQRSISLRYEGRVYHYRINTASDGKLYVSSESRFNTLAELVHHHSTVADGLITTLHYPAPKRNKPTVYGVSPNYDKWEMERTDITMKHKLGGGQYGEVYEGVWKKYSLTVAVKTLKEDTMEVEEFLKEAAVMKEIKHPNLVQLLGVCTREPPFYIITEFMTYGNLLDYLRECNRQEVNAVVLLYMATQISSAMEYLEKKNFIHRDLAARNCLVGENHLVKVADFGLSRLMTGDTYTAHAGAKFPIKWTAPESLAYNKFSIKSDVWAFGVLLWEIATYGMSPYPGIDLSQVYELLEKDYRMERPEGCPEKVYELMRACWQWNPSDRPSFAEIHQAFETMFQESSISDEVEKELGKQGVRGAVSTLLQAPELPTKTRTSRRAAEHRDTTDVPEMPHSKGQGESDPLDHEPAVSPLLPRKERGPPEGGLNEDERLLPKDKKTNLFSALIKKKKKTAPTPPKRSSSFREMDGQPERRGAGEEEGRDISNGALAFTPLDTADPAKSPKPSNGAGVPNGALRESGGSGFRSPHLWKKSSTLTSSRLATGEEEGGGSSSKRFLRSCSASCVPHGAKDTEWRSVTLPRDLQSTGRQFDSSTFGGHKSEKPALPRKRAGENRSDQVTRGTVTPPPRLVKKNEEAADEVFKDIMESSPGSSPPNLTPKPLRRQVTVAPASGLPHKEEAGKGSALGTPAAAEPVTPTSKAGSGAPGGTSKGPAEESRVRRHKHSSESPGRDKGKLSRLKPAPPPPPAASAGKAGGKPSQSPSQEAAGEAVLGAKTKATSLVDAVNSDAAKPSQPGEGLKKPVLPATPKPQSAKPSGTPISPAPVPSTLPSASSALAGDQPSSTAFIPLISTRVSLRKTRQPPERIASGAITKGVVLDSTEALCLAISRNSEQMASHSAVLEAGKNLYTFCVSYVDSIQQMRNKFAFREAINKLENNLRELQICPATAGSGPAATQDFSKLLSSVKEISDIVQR
- procedure-text: KINOMEscan kinase binding assay (Eurofins/DiscoveRx), % Ctrl
- reported-conditions: target ABL1-phosphorylated; 1 μM
measurement-label: % Ctrl, ABL1-phosphorylated (% Ctrl)

1) Cc1nn(C)c2c1-c1ccc3c(c1)/C(=C/c1[nH]ccc1C(=O)N(C)CCCO2)C(=O)N3; 82
2) Cc1cc2c([nH]1)/C=C1\C(=O)Nc3ccc(cc31)-c1c(C)nn(C)c1COCCN(C)C2=O; 100
3) Cc1cc2c([nH]1)/C=C1\C(=O)Nc3ccc(cc31)-c1c(noc1C)CNCCN(C)C2=O; 9.8
4) CN1CCSCCOc2cc3c(cc2Cl)NC(=O)/C3=C\c2[nH]ccc2C1=O; 18
5) Cc1cc2c([nH]1)/C=C1\C(=O)Nc3cnc(cc31)-c1cn[nH]c1CNCCN(C)C2=O; 6
6) CN1CCOCCOc2cc3c(cc2Cl)NC(=O)/C3=C\c2[nH]ccc2C1=O; 11
7) Cc1cc2c([nH]1)/C=C1\C(=O)Nc3cc(Cl)c(cc31)OCCO[C@@H](C(=O)N1CCN(C)CC1)CN(C)C2=O; 100
